Target: ER (Homo sapiens (Human))
Sequence (P03372 whole entry): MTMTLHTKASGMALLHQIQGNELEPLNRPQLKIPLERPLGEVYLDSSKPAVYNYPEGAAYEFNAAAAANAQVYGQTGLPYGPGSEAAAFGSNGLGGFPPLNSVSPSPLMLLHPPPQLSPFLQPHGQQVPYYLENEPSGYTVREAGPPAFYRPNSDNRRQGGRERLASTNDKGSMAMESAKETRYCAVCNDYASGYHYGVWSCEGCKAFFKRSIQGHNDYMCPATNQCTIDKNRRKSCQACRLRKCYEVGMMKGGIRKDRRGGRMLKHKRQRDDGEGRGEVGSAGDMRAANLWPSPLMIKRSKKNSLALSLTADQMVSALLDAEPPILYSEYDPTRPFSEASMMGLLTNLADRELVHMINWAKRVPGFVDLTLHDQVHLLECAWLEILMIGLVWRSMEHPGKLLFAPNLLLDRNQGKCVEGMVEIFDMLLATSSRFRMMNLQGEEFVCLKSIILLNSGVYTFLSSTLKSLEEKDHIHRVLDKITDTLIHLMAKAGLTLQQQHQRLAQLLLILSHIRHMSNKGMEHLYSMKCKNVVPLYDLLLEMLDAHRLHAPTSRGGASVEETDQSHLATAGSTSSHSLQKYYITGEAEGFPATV
Assay: MCF-7 ER degradation assay (high content imaging)
Assay type: cell-based
Conditions: MCF-7 cells, 1 nM compound, 4 hours treatment, DMSO control as baseline
Measured endpoint: MCF7 ER Degradation at 4 hr (%)
Expressed in %, but write only the number.

Sample C[C@@H]1Cc2c([nH]c3ccccc23)[C@@H](c2c(F)cc(/C=C/C(=O)O)cc2F)N1CC(C)(C)F [AZD9496, reference compound] — what was its MCF7 ER Degradation at 4 hr (%)? 17

Sample C[C@]12CC[C@@H]3c4ccc(O)cc4C[C@@H](CCCCCCCCC[S+]([O-])CCCC(F)(F)C(F)(F)F)[C@H]3[C@@H]1CC[C@@H]2O (some centres unmarked) [Fulvestrant, reference compound] — what was its MCF7 ER Degradation at 4 hr (%)? 29

Sample CC1Cc2c([nH]c3cc(F)ccc23)C(c2c(F)cc(/C=C/C(=O)O)cc2F)N1CC(C)(C)F (centres unmarked) [Compound 34A] — what was its MCF7 ER Degradation at 4 hr (%)? 21

Sample CC1Cc2c([nH]c3ccc(F)cc23)C(c2c(F)cc(/C=C/C(=O)O)cc2F)N1CC(C)(C)F (centres unmarked) [Compound 46A] — what was its MCF7 ER Degradation at 4 hr (%)? 25

Sample C[C@@H]1Cc2c([nH]c3ccccc23)[C@@H](c2c(F)cc(/C=C/C(=O)O)cc2Cl)N1CC(C)(C)F — what was its MCF7 ER Degradation at 4 hr (%)? 25

Where do these numbers come from? They come from patent US20240043442A1.
